// reported pEC50 per item
System: LHRH binding sites on human ovarian cancer cells (EFO-27);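 further: Cell-associated radioactivity on confluent EFO-27 monolayers in 96-well plates, measured by microplate scintillation counting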
pEC50: −log10 of the molar value.

Some entries whose results are on file:
CNCC(=O)N[C@@H](CCCNC(=N)N)C(=O)N[C@@H](Cc1c[nH]c2ccccc12)C(=O)N[C@@H](CO)C(=O)N[C@@H](Cc1c[nH]cn1)C(=O)N[C@H](CCCNC(=N)N)C(=O)N[C@@H](Cc1c[nH]c2ccccc12)C(=O)N[C@@H](Cc1ccc(C(=O)c2ccccc2)cc1)C(=O)N1CCC[C@H]1C(=O)NCCOCCOCCNC(=O)CN1CCN(CC(=O)O)CCN(CC(=O)O)CCN(CC(=O)O)CC1 [BRU-3043]
6.30 to 6.64
N=C(N)NCCC[C@H](NC(=O)[C@H](N)Cc1ccc2ccccc2c1)C(=O)N[C@@H](Cc1c[nH]c2ccccc12)C(=O)N[C@@H](CO)C(=O)N[C@@H](Cc1c[nH]cn1)C(=O)N[C@H](CCCNC(=N)N)C(=O)N[C@@H](Cc1c[nH]c2ccccc12)C(=O)N[C@@H](Cc1ccc(C(=O)c2ccccc2)cc1)C(=O)N1CCC[C@H]1C(=O)NCCCCNC(=O)CN1CCN(CC(=O)O)CCN(CC(=O)O)CCN(CC(=O)O)CC1 [BRU-3042]
≥ 6.70
CC(=O)N[C@H](Cc1ccc2ccccc2c1)C(=O)N[C@@H](CCCNC(=N)N)C(=O)N[C@@H](Cc1c[nH]c2ccccc12)C(=O)N[C@@H](CO)C(=O)N[C@@H](Cc1c[nH]cn1)C(=O)N[C@H](CCCNC(=N)N)C(=O)N[C@@H](Cc1c[nH]c2ccccc12)C(=O)N[C@@H](Cc1ccc(C(=O)c2ccccc2)cc1)C(=O)N1CCC[C@H]1C(=O)NCCOCCNC(=O)CN1CCN(CC(=O)O)CCN(CC(=O)O)CCN(CC(=O)O)CC1 [BRU-2992]
6.30 to 6.64
CNCC(=O)N[C@@H](CCCNC(=N)N)C(=O)N[C@@H](Cc1c[nH]c2ccccc12)C(=O)N[C@@H](CO)C(=O)N[C@@H](Cc1c[nH]cn1)C(=O)N[C@H](CCCNC(=N)N)C(=O)N[C@@H](Cc1c[nH]c2ccccc12)C(=O)N[C@@H](Cc1ccc(C(=O)c2ccccc2)cc1)C(=O)N1CCC[C@H]1C(=O)NCCOCCNC(=O)CN1CCN(CC(=O)O)CCN(CC(=O)O)CCN(CC(=O)O)CC1 [BRU-3039]
6.30 to 6.64

We now examine a further compound.
# value of pEC50, LHRH binding sites on human ovarian cancer cells (EFO-27), item CNCC(=O)N[C@@H](CCCNC(=N)N)C(=O)N[C@@H](Cc1c[nH]c2ccccc12)C(=O)N[C@@H](CO)C(=O)N[C@@H](Cc1c[nH]cn1)C(=O)N[C@H](CCCNC(=N)N)C(=O)N[C@@H](Cc1c[nH]c2ccccc12)C(=O)N[C@@H](Cc1ccc(C(=O)c2ccccc2)cc1)C(=O)N1CCC[C@H]1C(=O)NCCCCCNC(=O)CN1CCN(CC(=O)O)CCN(CC(=O)O)CCN(CC(=O)O)CC1 [BRU-3085] = 6.30 to 6.64

Ref: patent US20120045393A1
